System: Escherichia coli TOP10;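 further: peptides expressed intracellularly from a pBAD plasmid library in pooled LB shake-flask culture, induced with 0.3% L-arabinose, DNA abundance read by NGS, three biological replicates, DESeq2 with apeglm shrinkage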
Assay: shrunken log2 fold change of peptide-encoding DNA abundance (4.5 h post-induction vs induction); higher = less antimicrobial activity (less host growth inhibition)
Conditions: time post-induction: 4.5 h; library: site-saturation at positions 5, 18, 19, 20
recorded-endpoint: shrunken log2 fold change
Output spec: single numeric token, no unit.

[Q] Requested read-out: shrunken log2 fold change. Entry: `RRIRQRPPRLPRPRPRPKWDPRP`
[A] -0.0672

[Q] // query: `RRIRTRPPRLPRPRPRPIKAPRP`
[A] -0.143

[Q] Another sequence: `RRIRTRPPRLPRPRPRPCMVPRP`
[A] -0.576

[Q] Also, `RRIRGRPPRLPRPRPRPEFYPRP` please.
[A] 0.0687

[Q] Another sequence to check: `RRIRGRPPRLPRPRPRPEWEPRP`
[A] 0.00476

[Q] Same again, this time with `RRIRWRPPRLPRPRPRPWIAPRP`
[A] -0.11

[Q] And `RRIRCRPPRLPRPRPRPYLEPRP` ?
[A] -0.208

[Q] Would you mind doing `RRIRWRPPRLPRPRPRPAPQPRP` as well?
[A] 0.743

[Q] Note, next up: `RRIRNRPPRLPRPRPRPCLIPRP`
[A] -0.018

[Q] Please give the result for `RRIRGRPPRLPRPRPRPTQLPRP` too.
[A] 1.02

[Q] Repeat for the following sequence: `RRIRWRPPRLPRPRPRPTGRPRP`
[A] 0.536

[Q] Please give the result for `RRIRCRPPRLPRPRPRPNCYPRP` too.
[A] -0.209

[Q] // same read-out, input: `RRIRTRPPRLPRPRPRPDSWPRP`
[A] -0.595

[Q] How about this sequence: `RRIRKRPPRLPRPRPRPEYSPRP`
[A] 0.0499

[Q] Now consider `RRIRIRPPRLPRPRPRPKFGPRP` and answer again.
[A] 0.0227

[Q] Note, next up: `RRIRVRPPRLPRPRPRPKAPPRP`
[A] 0.592

[Q] Also check `RRIRGRPPRLPRPRPRPRCTPRP`
[A] 0.892

[Q] One more sequence: `RRIRQRPPRLPRPRPRPLRCPRP`
[A] 0.244

[Q] // same read-out, input: `RRIRRRPPRLPRPRPRPAKLPRP`
[A] 0.0542

[Q] Now give it for `RRIRHRPPRLPRPRPRPYMKPRP` too.
[A] -0.541

[Q] Consider next the sequence `RRIRDRPPRLPRPRPRPLQMPRP` in the same way.
[A] 0.167

[Q] Cool, now `RRIRDRPPRLPRPRPRPNPWPRP`
[A] 0.111

[Q] Same thing, different sequence: `RRIRKRPPRLPRPRPRPWSWPRP`
[A] 0.00624

[Q] Then what about the sequence `RRIRGRPPRLPRPRPRPCGAPRP` ?
[A] 1.16

[Q] Cool, now `RRIRIRPPRLPRPRPRPKQHPRP`
[A] -0.307

[Q] Entry `RRIRYRPPRLPRPRPRPAGPPRP` please
[A] -0.0366

[Q] Same question for `RRIRMRPPRLPRPRPRPIDEPRP` please.
[A] -0.0525

[Q] Try the sequence `RRIRIRPPRLPRPRPRPPILPRP`
[A] -0.0859

[Q] Please answer likewise for `RRIRLRPPRLPRPRPRPYFIPRP`
[A] -1.11

[Q] Do the same for `RRIRPRPPRLPRPRPRPKPTPRP` please
[A] 0.434

[Q] Same question for `RRIRKRPPRLPRPRPRPLRHPRP` please.
[A] 0.35

[Q] Cool, now `RRIRHRPPRLPRPRPRPCGPPRP`
[A] -0.084

[Q] Moving on to `RRIRVRPPRLPRPRPRPNHGPRP`
[A] -0.0115

[Q] And the next one, `RRIRVRPPRLPRPRPRPTPKPRP` ?
[A] 0.297

[Q] Now give it for `RRIRPRPPRLPRPRPRPRTEPRP` too.
[A] 0.306

[Q] Let us now turn to `RRIRRRPPRLPRPRPRPLIFPRP`
[A] -0.00389

[Q] Another sequence to look at: `RRIRTRPPRLPRPRPRPQYFPRP`
[A] -0.395

[Q] Same thing, different sequence: `RRIRDRPPRLPRPRPRPGYCPRP`
[A] -0.658

[Q] Another sequence: `RRIRGRPPRLPRPRPRPWQKPRP`
[A] 0.09

[Q] Further, for `RRIRVRPPRLPRPRPRPHWEPRP` ?
[A] -0.0118

[Q] Also check `RRIRARPPRLPRPRPRPCVAPRP`
[A] 0.715

[Q] Let us now turn to `RRIRERPPRLPRPRPRPMWEPRP`
[A] 0.169

[Q] Would you kindly repeat that for `RRIRSRPPRLPRPRPRPQRPPRP` ?
[A] 0.0966

[Q] Try this sequence next: `RRIRQRPPRLPRPRPRPRHQPRP`
[A] -0.00749

[Q] Then what about the sequence `RRIRPRPPRLPRPRPRPWSLPRP` ?
[A] -0.0559

[Q] One more sequence: `RRIRERPPRLPRPRPRPVRDPRP`
[A] 0.337

[Q] Now this one: `RRIRKRPPRLPRPRPRPETWPRP`
[A] 0.0991

[Q] Next entry: `RRIRERPPRLPRPRPRPGRPPRP`
[A] 0.164

[Q] Moving on to the next sequence: `RRIRQRPPRLPRPRPRPSAAPRP`
[A] 0.486

[Q] Next record, please: `RRIRGRPPRLPRPRPRPGMCPRP`
[A] 0.489

[Q] Okay, and `RRIRTRPPRLPRPRPRPYIGPRP` ?
[A] -0.119

[Q] Try this sequence too: `RRIRTRPPRLPRPRPRPKRDPRP`
[A] 0.187

[Q] Moving on to the next sequence: `RRIRTRPPRLPRPRPRPVFHPRP`
[A] -0.136

[Q] Now give it for `RRIRHRPPRLPRPRPRPEGNPRP` too.
[A] -0.0642

[Q] Again, but for `RRIRRRPPRLPRPRPRPCMSPRP`
[A] -0.00622

[Q] Now consider `RRIRKRPPRLPRPRPRPDIFPRP` and answer again.
[A] -0.178

[Q] Consider next the sequence `RRIRTRPPRLPRPRPRPGRPPRP` in the same way.
[A] 0.217

Numbers sourced from the supplement of paper PMC9112550.
